assay: in vivo; conditions: NF1 minipig, sc, 8.25 mg/kg, Cmax
assayEndpoint: Cmax (ng/mL)

{"compound": "CNC(C)C1CCC(N)C(OC2C(N)CC(N)C(OC3OCC(C)(O)C(NC)C3O)C2O)O1 (stereo not shown)", "measuredNumber": 38000}

* * *

experiment: in vivo; conditions: Ossabaw, minipig, sc, 8.25 mg/kg, target Cmax reached

{"compound": "CNC(C)C1CCC(N)C(OC2C(N)CC(N)C(OC3OCC(C)(O)C(NC)C3O)C2O)O1 (stereo not shown)", "Cmax, ng/mL": 40000}

* * *

assay: in vivo; settings: Ossabaw, minipig, sc, 8.25 mg/kg, mean Cmax

{"compound": "CNC(C)C1CCC(N)C(OC2C(N)CC(N)C(OC3OCC(C)(O)C(NC)C3O)C2O)O1 (stereo not shown) [gentamicin]", "readoutUnit": "ng/mL", "Cmax": 38000}
